Where do these numbers come from? They come from patent US5770611A.

ASSAYED SYSTEM: "5-HT1 -like" receptor (dog isolated saphenous vein strip) (Canis lupus familiaris)
Construct: on dog isolated saphenous vein strip
Sequence (P79250 whole entry): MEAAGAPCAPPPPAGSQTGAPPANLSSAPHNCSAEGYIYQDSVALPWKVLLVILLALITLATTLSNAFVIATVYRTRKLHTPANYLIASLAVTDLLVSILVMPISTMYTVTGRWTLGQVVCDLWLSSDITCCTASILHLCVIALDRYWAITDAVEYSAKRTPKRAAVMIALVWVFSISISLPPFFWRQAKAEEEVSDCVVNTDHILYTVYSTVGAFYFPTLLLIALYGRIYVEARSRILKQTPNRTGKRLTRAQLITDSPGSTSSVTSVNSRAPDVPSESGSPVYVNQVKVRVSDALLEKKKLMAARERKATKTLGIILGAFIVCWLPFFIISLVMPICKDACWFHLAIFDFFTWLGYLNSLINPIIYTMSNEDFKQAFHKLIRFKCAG
PROCEDURE SUMMARY: contraction of isolated dog saphenous vein strip ("5-HT1 -like" receptor agonist activity)
DETAILS: concentration causing 50% of the maximum contraction effected by the compound
Source text: The following Table illustrates the in vitro activities for a range of the compounds of the invention on dog isolated saphenous vein strip. EC50 represents the concentration of compound which causes 50% of the maximum contraction effected by it.
READOUT TYPE: EC50 (µM)

COMPOUND | ASSAYED SYSTEM | DISPLAY UNIT | EC50
CC(C)(O)CCc1ccc2[nH]cc(C[C@H]3CCCN3CC3CCCNC3=O)c2c1 (single isomer, unassigned) [Example 9A] | "5-HT1 -like" receptor (dog isolated saphenous vein strip) (Canis lupus familiaris) | µM | 3

a = CC(C)(O)CCc1ccc2[nH]cc(C[C@H]3CCCN3C[C@H]3CCCN3S(C)(=O)=O)c2c1
b = CC(C)(O)CCc1ccc2[nH]cc(C[C@H]3CCCN3CC3CCCNC3=O)c2c1 (single isomer, unassigned) [Example 9B]
c = CC(C)(O)CCc1ccc2[nH]cc(C[C@H]3CCCN3CC3CCN(Cc4ccccc4)C3)c2c1 (stereo partly shown)
# input // ranking: key=EC50, reverse=True // format: requested-order list of labels
# output b, c, a
